Ref: patent US4252804A

# System: pentobarbital hypnosis time
# procedure details: Action on the pentobarbital hypnosis time in the mouse
# Format: in vivo
# stated conditions: po, 0.5 h, 500 mg/kg p.o., 30 minutes before pentobarbital 50 mg/kg i.v., vs control, read-out: Percentage variation in pentobarbital hypnosis time
Cut-off 200% on change in vivo at 500 mg/kg: below means 1, at or above means -1.

The examples below pair each entry with its known result.
COc1cc(NC(=O)N2CCSCC2)cc(OC)c1OC | 1
COc1cc(OC(=O)N2CCOCC2)cc(OC)c1OC | 1
COc1cc(NC(=O)CCN2CCOCC2)cc(OC)c1OC | -1

Problem: Below 200% on change in vivo at 500 mg/kg? Entry COc1cc(CNC(=O)Nc2cc(OC)c(OC)c(OC)c2)cc(OC)c1OC
Result: 1
